Tested on: HEK-293T
experiment: Multiplex assay against HEK293T
Assay type: toxicity, cell-based
condition-context: human, 48 h, 1 µM, compound concentration 1 uM, replicate 1
Listing of recorded Population Normal (%) by entry.

| molecule | Population Normal (%) |
| --- | --- |
| N#Cc1c(N)nc(SCc2csc(-c3ccc(Cl)cc3)n2)c(C#N)c1-c1ccc(OCCO)cc1 | 95 |
| Cc1ccccc1C(=O)Nc1ccc(C(=O)N2CCCC(N(C)C)c3ccccc32)cc1.Cl (centres undefined) | 97 |
| C[C@H](NC(=O)c1c(C(F)F)nn(C)c1Oc1cccc(C(F)(F)F)c1)c1ccc(C(=O)O)cc1 | 97 |
| Cc1ccc(C(C)(O)c2nc3ccccc3s2)c(C)c1 (centres undefined) | 97 |
| COc1ccc2c(c1)C(C(=O)N(Cc1ccc(N(C)C)cc1)c1ccc(C(C)C)cc1)CCC2.Cl (centres undefined) | 98 |
| CCNC1(C(N)=O)CCN(c2ncnc3c2nc(-c2ccccc2Cl)n3-c2ccc(Cl)cc2)CC1 | 95 |
| COc1c(C)cc(NC(=O)c2nn(Cc3ccc(F)cc3)c3c2CN(C(=O)c2ccc[nH]2)C[C@]3(C)C(N)=O)cc1C | 97 |
| CCCN1CCC[C@@H]2Cc3n[nH]cc3C[C@H]21.Cl [QUINPIROLE HYDROCHLORIDE] | 98 |
| O=C(O)Cc1ccccc1Nc1c(Cl)cccc1Cl | 97 |

* * *

Entries and their measured Population Tubulin-Different-Phenotype (%) follow.
System: HEK-293T
experiment: Multiplex assay against HEK293T
Format: toxicity, cell-based
condition-context: human, 12 h, 1 µM, compound concentration 1 uM, replicate 1
endpoint: Population Tubulin-Different-Phenotype (%)

| compound | reading |
| --- | --- |
| CCNC1(C(N)=O)CCN(c2ncnc3c2nc(-c2ccccc2Cl)n3-c2ccc(Cl)cc2)CC1 | 52% |
| c1cc(OCCCN2CCCCC2)ccc1CN1CCCCC1 | 21% |
| Oc1c(CN2CCN(c3ccccn3)CC2)cc(Cl)c2cccnc12 | 34% |
| CC1(COc2ccc3c(c2)ncn3-c2ccc3cccc(N4CCC(N)CC4)c3n2)COC1 | 46% |
| COc1cc(C(=O)N(CCCc2ccccc2)Cc2ccc(CC(=O)O)cc2)cc(OC)c1C | 31% |
| Cc1ccc(/C(=C\CN2CCCC2)c2ccccn2)cc1 | 24% |
| COc1ccc2c(c1)C(C(=O)N(Cc1ccc(N(C)C)cc1)c1ccc(C(C)C)cc1)CCC2.Cl (configuration not stated) | 27% |

* * *

Catalogue of Population Normal (%) values
Test system: HEK-293T
experiment: Multiplex assay against HEK293T
Format: toxicity, cell-based
condition-context: human, 12 h, 1 µM, compound concentration 1 uM, replicate 1

| molecule | uom | Population Normal (%) |
| --- | --- | --- |
| CSc1ccccc1N1CCN(CCCCCC(=O)NC2CCCc3ccccc32)CC1.Cl (centres undefined) | % | 91 |
| Oc1c(CN2CCN(c3ccccn3)CC2)cc(Cl)c2cccnc12 | % | 92 |
| O=C(O)Cc1ccccc1Nc1c(Cl)cccc1Cl | % | 94 |
| COc1cc(NC(=O)CCN2CCC(OC(=O)Nc3ccccc3-c3ccccc3)CC2)c(Cl)cc1CNC[C@H](O)c1ccc(O)c2[nH]c(=O)ccc12 | % | 92 |
| COc1cc(C(=O)N(CCCc2ccccc2)Cc2ccc(CC(=O)O)cc2)cc(OC)c1C | % | 94 |
| COc1ccccc1N1CCN(CCCCNC(=O)c2ccc3ccccc3c2)CC1.Cl | % | 93 |
| O=C(O)c1cc2ccccc2c(Cc2c(O)c(C(=O)O)cc3ccccc23)c1O | % | 92 |
| Cc1ccc(C(C)(O)c2nc3ccccc3s2)c(C)c1 (centres undefined) | % | 95 |
| N#Cc1c(N)nc(SCc2csc(-c3ccc(Cl)cc3)n2)c(C#N)c1-c1ccc(OCCO)cc1 | % | 91 |

* * *

Test system: U2OS
experiment: Multiplex assay against U2OS
Type: toxicity, cell-based
condition-context: human, 12 h, 1 µM, compound concentration 1 uM, replicate 1
Use 60% as the dividing line for Population Apoptotic (%), with the line itself on the satisfied side and lower values as not satisfied.

| compound | class |
| --- | --- |
| CCCn1c(=O)c2[nH]c(C3CCCC3)nc2n(CCC)c1=O | satisfied |
| O=S(=O)(c1ccccc1)c1cnc2c(N3CCNCC3)cccc2c1 [INTEPIRDINE] | satisfied |
| O=C1COc2nccc(-c3ccccc3F)c2CN1Cc1cc(C(F)(F)F)cc(C(F)(F)F)c1 | not satisfied |
| CC1(COc2ccc3c(c2)ncn3-c2ccc3cccc(N4CCC(N)CC4)c3n2)COC1 [CRENOLANIB] | not satisfied |
| CC(C)(C)c1ccc(S(=O)(=O)Nc2ccc(Cl)cc2C(=O)c2cc[n+]([O-])cc2)cc1 [VERCIRNON] | satisfied |

* * *

Test system: HEK-293T
experiment: Multiplex assay against HEK293T
Format: toxicity, cell-based
condition-context: human, 24 h, 10 µM, compound concentration 10 uM, replicate 1
Where Population Normal (%) equals or exceeds 90%, the correct label is 1; where it does not, the label is -1.

| compound | class |
| --- | --- |
| CCCC(CCC)C(=O)O | 1 |
| CCOc1c2c(c(OCC)c3ncccc13)CN(c1ccc(CS(=O)(=O)NC(=O)Cc3ccccc3OC)cc1C)C2=O | 1 |
| CCNC1(C(N)=O)CCN(c2ncnc3c2nc(-c2ccccc2Cl)n3-c2ccc(Cl)cc2)CC1 | -1 |
| CN1CCN2c3ncccc3Cc3ccccc3C2C1 (stereo not drawn) | 1 |
| CN(C)CCCc1cc(C(=O)Nc2ccc(-c3ccncc3)cc2)ccc1O.Cl.Cl | 1 |
| C[C@H](NC(=O)c1c(C(F)F)nn(C)c1Oc1cccc(C(F)(F)F)c1)c1ccc(C(=O)O)cc1 | 1 |

* * *

The entries below come with measured Population Mitochondria Different-Phenotype (%) values attached.
System: HEK-293T
experiment: Multiplex assay against HEK293T
Assay type: toxicity, cell-based
condition-context: human, 12 h, 1 µM, compound concentration 1 uM, replicate 2
endpoint: Population Mitochondria Different-Phenotype (%)

| molecule | reading |
| --- | --- |
| O=C1COc2nccc(-c3ccccc3F)c2CN1Cc1cc(C(F)(F)F)cc(C(F)(F)F)c1 | 67 |
| O=S(=O)(c1ccccc1)c1cnc2c(N3CCNCC3)cccc2c1 [INTEPIRDINE] | 69 |
| O=C(O)Cc1ccccc1Nc1c(Cl)cccc1Cl [DICLOFENAC] | 61 |
| O=C(NCCO)c1cccc(-c2cc(Nc3ccc(OC(F)(F)F)cc3)ncn2)c1 | 60 |
| Cc1ccc(/C(=C\CN2CCCC2)c2ccccn2)cc1 [TRIPROLIDINE] | 55 |
| O=C(NCC(=O)N1CC[C@H](N[C@H]2CC[C@@](O)(c3ccc(-c4ncccn4)cn3)CC2)C1)c1cccc(C(F)(F)F)c1 [PF-4136309] | 56 |
| C[C@H](NC(=O)c1c(C(F)F)nn(C)c1Oc1cccc(C(F)(F)F)c1)c1ccc(C(=O)O)cc1 [PALUPIPRANT] | 60 |
| CN(C)CCCc1cc(C(=O)Nc2ccc(-c3ccncc3)cc2)ccc1O.Cl.Cl | 58 |
| CCNC1(C(N)=O)CCN(c2ncnc3c2nc(-c2ccccc2Cl)n3-c2ccc(Cl)cc2)CC1 [OTENABANT] | 66 |
| N[C@@]1(C(=O)O)CO[C@H]2[C@H](C(=O)O)[C@H]21 [LY-379268] | 57 |
| COc1cc(C(=O)N(CCCc2ccccc2)Cc2ccc(CC(=O)O)cc2)cc(OC)c1C | 50 |
| Cl.Clc1ccc2nsnc2c1NC1=NCCN1 [TIZANIDINE HYDROCHLORIDE] | 62 |
| N#Cc1c(N)nc(SCc2csc(-c3ccc(Cl)cc3)n2)c(C#N)c1-c1ccc(OCCO)cc1 [CAPADENOSON] | 60 |
| O=C(O)c1cc2ccccc2c(Cc2c(O)c(C(=O)O)cc3ccccc23)c1O [PAMOIC ACID] | 60 |
| CC(C)(C)c1ccc(S(=O)(=O)Nc2ccc(Cl)cc2C(=O)c2cc[n+]([O-])cc2)cc1 [VERCIRNON] | 51 |
| COc1ccccc1N1CCN(CCCCNC(=O)c2ccc3ccccc3c2)CC1.Cl | 76 |
| CCCC(CCC)C(=O)O [VALPROIC ACID] | 46 |
| Cc1ccccc1C(=O)Nc1ccc(C(=O)N2CCCC(N(C)C)c3ccccc32)cc1.Cl (centres undefined) | 72 |
| C[C@H]1[C@H]2CC[C@H]3[C@@H]4CC=C5C[C@@H](N(C)C)CC[C@]5(C)[C@H]4CC[C@]23CN1C [CONESSINE] | 58 |
| CSc1ccccc1N1CCN(CCCCCC(=O)NC2CCCc3ccccc32)CC1.Cl (centres undefined) | 75 |
| COc1ccc2c(c1)C(C(=O)N(Cc1ccc(N(C)C)cc1)c1ccc(C(C)C)cc1)CCC2.Cl (centres undefined) | 61 |
| CC1(COc2ccc3c(c2)ncn3-c2ccc3cccc(N4CCC(N)CC4)c3n2)COC1 [CRENOLANIB] | 51 |
| COc1cc(NC(=O)CCN2CCC(OC(=O)Nc3ccccc3-c3ccccc3)CC2)c(Cl)cc1CNC[C@H](O)c1ccc(O)c2[nH]c(=O)ccc12 [BATEFENTEROL] | 84 |
| Oc1c(CN2CCN(c3ccccn3)CC2)cc(Cl)c2cccnc12 | 59 |
| CCOc1c2c(c(OCC)c3ncccc13)CN(c1ccc(CS(=O)(=O)NC(=O)Cc3ccccc3OC)cc1C)C2=O | 54 |
| C[C@@H]1C[C@H]2[C@@H]3CCC4=CC(=O)C=C[C@]4(C)[C@@]3(F)[C@@H](O)C[C@]2(C)[C@@]1(O)C(=O)CO [DEXAMETHASONE] | 62 |
| CNC[C@H](O)c1ccc(O)c(O)c1 [EPINEPHRINE] | 65 |
| CSCC[C@H](NC=O)C(=O)N[C@@H](CC(C)C)C(=O)N[C@@H](Cc1ccccc1)C(=O)O | 57 |
| CC(=O)NCCc1c(Cc2ccccc2)[nH]c2ccccc12 [LUZINDOLE] | 68 |
| CC[C@H]1OC(=O)[C@H](C)[C@@H](O[C@H]2C[C@@](C)(OC)[C@@H](O)[C@H](C)O2)[C@H](C)[C@@H](O[C@@H]2O[C@H](C)C[C@H](N(C)C)[C@H]2O)[C@@]2(C)CC(C)=C(O2)[C@H](C)[C@@H](O)[C@]1(C)O | 72 |
| CCCn1c(=O)c2[nH]c(C3CCCC3)nc2n(CCC)c1=O | 52 |
| Cc1ccc(C(C)(O)c2nc3ccccc3s2)c(C)c1 (centres undefined) | 63 |
| CN1CCN(c2nc3cc(C(F)(F)F)ccc3n3cccc23)CC1.O=C(O)/C=C\C(=O)O.O=C(O)/C=C\C(=O)O | 76 |
| CN(C)c1ccnc2sc3c(=O)n(N4CCCCCC4)cnc3c12 | 67 |

The measured values listed here are drawn from ChEMBL document CHEMBL5058577.
